These entries and their values trace back to patent US20250121082A1.

- target: T1, Human CD228 protein (human, UniProt P08582 20-708, limits assumed)
- T1 construct: Recombinant protein made in CHO cells, purified over a Ni column; The printed entry begins with the leader (MRGPSG...) and ends with ten His; also called hCD228; CD228-His protein
- T1 sequence: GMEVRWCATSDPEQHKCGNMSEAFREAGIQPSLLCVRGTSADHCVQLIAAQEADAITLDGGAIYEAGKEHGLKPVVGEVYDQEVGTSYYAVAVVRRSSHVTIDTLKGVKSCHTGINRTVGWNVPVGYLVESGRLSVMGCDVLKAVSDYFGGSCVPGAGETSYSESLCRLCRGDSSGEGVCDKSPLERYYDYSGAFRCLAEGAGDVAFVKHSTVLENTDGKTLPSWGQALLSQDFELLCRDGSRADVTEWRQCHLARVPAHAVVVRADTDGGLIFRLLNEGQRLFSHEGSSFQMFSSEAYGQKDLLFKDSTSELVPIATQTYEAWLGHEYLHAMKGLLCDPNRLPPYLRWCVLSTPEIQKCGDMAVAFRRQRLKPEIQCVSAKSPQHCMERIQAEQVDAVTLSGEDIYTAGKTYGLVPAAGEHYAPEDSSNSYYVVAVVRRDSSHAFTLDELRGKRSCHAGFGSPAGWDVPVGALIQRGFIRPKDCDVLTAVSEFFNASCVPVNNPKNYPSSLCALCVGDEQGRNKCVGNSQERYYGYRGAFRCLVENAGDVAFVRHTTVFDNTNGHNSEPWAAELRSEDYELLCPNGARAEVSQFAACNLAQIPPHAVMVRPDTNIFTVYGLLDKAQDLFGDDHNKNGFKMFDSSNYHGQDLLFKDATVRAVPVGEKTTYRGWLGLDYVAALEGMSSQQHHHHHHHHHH
- assay-comment: Octet competition on His-chip CD228; competitor: CA149
readout-label: Octet response value
Reply briefly: the number, and no unit.

Use the examples below as a reference point.
{"binder": "CA13 (antibody, human IgG1, kappa, V domains shown, Intact IgG1 from fully human antibody-transgenic mice) VH: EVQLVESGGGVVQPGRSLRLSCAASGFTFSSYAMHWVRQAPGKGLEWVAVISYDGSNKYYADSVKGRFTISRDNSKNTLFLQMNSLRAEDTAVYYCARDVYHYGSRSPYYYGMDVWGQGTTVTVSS VL: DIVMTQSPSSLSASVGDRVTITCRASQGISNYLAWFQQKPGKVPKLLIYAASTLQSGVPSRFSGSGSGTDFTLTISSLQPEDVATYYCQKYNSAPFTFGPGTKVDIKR", "Octet response value": -0.0059}
{"binder": "CA518 (antibody, human IgG1, kappa, V domains shown, Intact IgG1) VH: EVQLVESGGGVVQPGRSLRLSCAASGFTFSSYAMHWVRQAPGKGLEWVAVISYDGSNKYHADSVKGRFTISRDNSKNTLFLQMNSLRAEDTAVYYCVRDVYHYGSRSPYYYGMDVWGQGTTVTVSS VL: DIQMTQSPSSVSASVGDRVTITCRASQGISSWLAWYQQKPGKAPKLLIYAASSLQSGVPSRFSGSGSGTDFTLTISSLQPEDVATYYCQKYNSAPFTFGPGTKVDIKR", "Octet response value": -0.0041}
{"binder": "CA185 (antibody, human IgG1, kappa, V domains shown, Intact IgG1) VH: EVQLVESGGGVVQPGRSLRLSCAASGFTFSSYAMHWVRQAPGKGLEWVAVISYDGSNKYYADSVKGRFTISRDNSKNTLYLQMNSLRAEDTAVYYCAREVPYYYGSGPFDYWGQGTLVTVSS VL: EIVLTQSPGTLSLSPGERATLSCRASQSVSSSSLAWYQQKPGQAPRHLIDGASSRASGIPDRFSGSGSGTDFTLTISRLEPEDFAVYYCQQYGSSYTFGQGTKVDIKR", "Octet response value": 0.0089}

Data request, read-out Octet response value, for BA352 (antibody, human IgG1, kappa, V domains shown, Intact IgG1) VH: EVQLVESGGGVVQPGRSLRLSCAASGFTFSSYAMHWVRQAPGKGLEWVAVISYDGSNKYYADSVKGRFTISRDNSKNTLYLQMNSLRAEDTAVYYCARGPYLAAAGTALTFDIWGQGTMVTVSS VL: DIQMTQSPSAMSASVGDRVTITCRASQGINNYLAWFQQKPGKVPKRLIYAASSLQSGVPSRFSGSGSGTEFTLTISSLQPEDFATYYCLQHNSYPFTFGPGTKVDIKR
0.416

Now this one: CA149 (antibody, human IgG1, kappa, V domains shown, Intact IgG1; also called CA149 antibody) VH: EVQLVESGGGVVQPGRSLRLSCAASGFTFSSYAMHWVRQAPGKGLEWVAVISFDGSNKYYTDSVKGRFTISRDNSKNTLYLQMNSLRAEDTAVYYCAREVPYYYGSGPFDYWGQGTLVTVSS VL: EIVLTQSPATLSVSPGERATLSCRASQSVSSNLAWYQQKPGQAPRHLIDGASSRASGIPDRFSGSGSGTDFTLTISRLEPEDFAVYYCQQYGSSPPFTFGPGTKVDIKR
0.0039

Now this one: reference antibody hL49 (antibody, human IgG1, kappa, V domains shown, also called H149; hL49 analogy) VH: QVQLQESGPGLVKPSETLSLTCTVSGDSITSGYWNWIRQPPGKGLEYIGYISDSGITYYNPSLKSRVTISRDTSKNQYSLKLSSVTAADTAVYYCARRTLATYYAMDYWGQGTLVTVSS VL: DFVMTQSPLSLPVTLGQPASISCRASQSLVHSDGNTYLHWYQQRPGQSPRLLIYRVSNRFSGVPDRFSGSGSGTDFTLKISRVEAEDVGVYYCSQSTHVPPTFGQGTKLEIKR
0.435
